tested on: Jurkat cells; assay: Annexin V-FITC/PI apoptosis assay; format: cell-based, human; details: 24 h treatment
MEASURE: induction of apoptotic (annexin-V-positive) cells, in words

>  <COMPOUND>
CCn1cc(C(N)=O)c2c3c(=O)cc(-c4ccccc4)[nH]c3ccc21 [Compound 22]

>  <TESTED SYSTEM>
Jurkat cells

>  <RESULT>
lower efficacy

$$$$
>  <COMPOUND>
CCn1ccc2c3c(=O)cc(-c4cccnc4)[nH]c3ccc21 [Compound 13]

>  <TESTED SYSTEM>
Jurkat cells

>  <RESULT>
lower efficacy

$$$$

----------
tested on: HeLa; experiment: MTT growth inhibition, HeLa cervix carcinoma cells; format: cell-based, human; details: Homo sapiens, HeLa, 72 h, read-out: GI50 HeLa
# maps each entry to its GI50

>  <MOLECULE>
CCn1ccc2c3c(=O)c(-c4cccc(OC)c4)c[nH]c3ccc21 [Compound 36]

>  <INEQUALITY SYMBOL>
>

>  <GI50, µM>
50

$$$$
>  <MOLECULE>
COc1cc(Cn2ccc3c4c(=O)cc(-c5ccccc5)[nH]c4ccc32)cc(OC)c1OC [Compound 12]

>  <INEQUALITY SYMBOL>
=

>  <GI50, µM>
0.4

$$$$
>  <MOLECULE>
CCOC(=O)CCn1ccc2c3c(=O)cc(-c4ccccc4)[nH]c3ccc21 [Compound 11]

>  <INEQUALITY SYMBOL>
=

>  <GI50, µM>
0.45

$$$$
>  <MOLECULE>
CCn1ccc2c3c(=O)c(-c4ccccc4)c[nH]c3ccc21 [Compound 34]

>  <INEQUALITY SYMBOL>
>

>  <GI50, µM>
50

$$$$
>  <MOLECULE>
O=c1c(-c2ccccc2)c[nH]c2ccc3[nH]ccc3c12 [Compound 33]

>  <INEQUALITY SYMBOL>
>

>  <GI50, µM>
50

$$$$
>  <MOLECULE>
CCn1ccc2c3c(=O)c(-c4ccc(Br)cc4)c[nH]c3ccc21 [Compound 37]

>  <INEQUALITY SYMBOL>
>

>  <GI50, µM>
50

$$$$
>  <MOLECULE>
CCn1ccc2c3c(=O)cc(-c4cccnc4)[nH]c3ccc21 [Compound 13]

>  <INEQUALITY SYMBOL>
=

>  <GI50, µM>
0.4

$$$$
>  <MOLECULE>
CCn1cc(C)c2c3c(=O)cc(-c4ccccc4)[nH]c3ccc21 [Compound 17]

>  <INEQUALITY SYMBOL>
=

>  <GI50, µM>
4.5

$$$$
>  <MOLECULE>
CCn1cc(C#N)c2c3c(=O)cc(-c4ccccc4)[nH]c3ccc21 [Compound 21]

>  <INEQUALITY SYMBOL>
>

>  <GI50, µM>
50

$$$$
